# ASSAY_OVERVIEW: NCI Yeast Anticancer Drug Screen. Data for the mlh1 rad18 strain (AID 175)
# MEASUREMENT_SETUP: S. cerevisiae mlh1 rad18 strain growth inhibition; at 50.0 µM (retest, dose inferred, filed as 5.0); hits give high values
This is part of a sample that, as a whole, favours compounds with a hit. Of some 79,000 tested, about 15% had one in any assay.
What growth inhibition was measured for each of the following?
Give bare numbers, in %.

// field: growth inhibition; key: C=C(C)C(CC=C(C)C)Cc1c(O)cc(OC)c2c1OC(c1ccc(O)cc1O)C(O)C2=O (stereo not given) ; value = 23

Items follow; give growth inhibition for each.
1. CCOc1ccc2c(c1)[n+]([O-])c(S(=O)(=O)c1ccc(C)cc1)c(N)[n+]2[O-]
2. O=C(O)C1C(=O)OC2CCCCC21 (stereo not given)
3. CC(=C/c1ccccc1)/C=C1/NC(=S)N(/C=C2\C(=O)Oc3ccccc3C2=O)C1=O
4. CC1CCN(C(=S)NNC(C)c2cc3ccccc3cn2)CC1 (stereo not given)

[85, -3, 12, 96]

Items follow; give growth inhibition for each.
1. COC(=O)c1ccc(-c2ccccc2)cc1
2. O=C(NNc1ccccc1)c1ccc([N+](=O)[O-])cc1
3. CN(NC(=O)/C(=C/c1ccc2c(c1)OCO2)NC(=O)c1ccccc1)c1ccnc2cc(Cl)ccc12
4. O=CCCCc1cc2c(cc1Br)CCC2
5. O=C(/C=C/c1ccccc1Cl)c1ccc(F)cc1
6. Oc1cccc2ccc(/C=C/c3ccccn3)nc12

1: 86; 2: 97; 3: 11; 4: 91; 5: 47; 6: 98

Items follow; give growth inhibition for each.
1. CCCCCCCCCCCCCC[N+]1(CC)CCCCC1
2. Cc1ccc2c(c1)C1(SC(CC(=O)O)C(=O)N1c1ccc(Cl)cc1)C(=O)N2 (stereo not given)
3. CC(C)/C=C1\CCOC1=O
4. Cc1ccc(C)c(C(=O)CCN)c1
5. N#CCCN(C(=S)Nc1ccc(Cl)c(Cl)c1)C1CCCCC1
6. CN1C(=O)CCCCCCCCCCSc2ccccc21
7. O=C(COc1ccc(Cl)cc1)OCCO
8. CCCSc1n[nH]c(=S)s1

1: 99; 2: -49; 3: 6; 4: 6; 5: 90; 6: 98; 7: 5; 8: 15

Items follow; give growth inhibition for each.
1. CN1C(=O)[C@@H]2N(N(C)C1=O)[C@@]1(Br)C(=O)N(C)C(=O)[C@@]21Br
2. CCOc1cc2c(cc1Cc1c(OC)cc(OC)cc1OC)OCO2
3. OC(c1ccccc1)c1cccc(Br)c1 (stereo not given)
4. CCOC(=O)c1sc2c(c1O)c(=O)n(-c1ccccc1)c(=S)n2-c1ccccc1
5. CCCN(Cc1ccccc1)S(=O)(=O)c1ccc(C)cc1

1: 91; 2: 73; 3: 77; 4: 98; 5: 96

// field: growth inhibition; key: "O=C(O)c1ccccc1-c1ccccc1C(=O)Nc1ccc2c(c1)Cc1cc(F)ccc1-2" ; value = 97

###

# ASSAY_OVERVIEW: NCI Yeast Anticancer Drug Screen. Data for the mec2-1 strain (AID 157)
# MEASUREMENT_SETUP: S. cerevisiae mec2-1 strain, at 5.0 µM (retest, dose inferred, filed as 0.5), hits give high values
# Protocol: Growth inhibition of yeast strains with defined genetic alterations is measured as a screen for potential anti-cancer activity. Selected strains with alterations in DNA damage repair or cell cycle control were exposed to compounds and growth inhibition was measured relative to vehicle treated controls. The strain used in this assay is mec2-1
About 79,000 compounds went through this panel and 15% of them were active in at least one assay; those are over-represented in the sample as a whole.
PROPERTY: growth inhibition (%)
Give bare numbers, in %.

Check out these entries, answers already filled in.
// field: growth inhibition; key: "CC/C(Cl)=N\OC(=O)Nc1ccc(F)c(Cl)c1" ; value = 5

// field: growth inhibition; key: CC1SC2(C(=O)Nc3ccc([N+](=O)[O-])cc32)N(c2ccc(Cl)cc2)C1=O (stereo not drawn) ; value = -2

// field: growth inhibition; key: "Oc1ccc(-c2nnc(-c3ccccc3)nn2)cc1" ; value = -48

// field: growth inhibition; key: CSC(=S)SC(SC)S(C)(=O)=O (stereo not drawn) ; value = -5

// field: growth inhibition; key: "C#CC(C)(C)OC(C)=O" ; value = 0

Items follow; give growth inhibition for each.
1. CCCCN(CCO)CCNc1ccc(C)c2sc3ccccc3c(=O)c12
2. O=[N+]([O-])c1ccc(NS(=O)(=O)c2ccc(Cl)c(Cl)c2Cl)c([N+](=O)[O-])c1
3. CC(=O)[O-].O=C(N/N=C/c1ccccc1[O-])c1ccccc1.[Zn+2]
4. Cc1ccc(NCCN(C)C)c2c(=O)c3ccc(O)cc3sc12
5. C=C1CC/C=C(/C(=O)O)CC[C@H]2[C@@H]1CC2(C)C

14
24
6
-3
4

Items follow; give growth inhibition for each.
1. NC1=NCN(C2OC(COCc3ccccc3)C(OCc3ccccc3)C2OCc2ccccc2)C(=O)N1 (stereo not drawn)
2. Cc1ccc(SCc2ccccc2Cl)nn1
3. Cc1cc(C)c(Cc2ccccc2O)cc1Cc1ccccc1O
4. CCOC(=O)C(N=Nc1ccc(Br)c(C)c1)C(C)=O (stereo not drawn)
5. O=C1CSC(Cc2nc3ccccc3[nH]2)=N1
6. C=C1CCC[C@@]2(C)CC[C@@H](/C(C)=C\C=C\C(C)(C)O)C[C@H]12
7. COc1cccc(-c2cc(=O)c3c(C)ccnc3[nH]2)c1

1. 8
2. -9
3. 35
4. -7
5. 26
6. -1
7. 4

Items follow; give growth inhibition for each.
1. CC(C)N(C(=O)C12C3C4C1C1C2C3C41I)C(C)C (stereo not drawn)
2. O=C1CCCCCCC2=C1C(Sc1ccccc1)CC2 (stereo not drawn)
3. Oc1ccc(C(=C(Br)c2ccccc2)c2ccc(O)cc2)cc1
4. Cc1ccc(O)c(C(C)(C)c2ccccc2)c1
5. CCN(CC)C(=S)N/N=C/c1cc(OC)ccc1O

-28
-6
99
-5
-43
